Test system: Cryptococcus neoformans IAM 4514
Assay: MIC, two-fold agar dilution, C. neoformans IAM 4514
Assay type: cell-based
Conditions: IAM4514; Cryptococcus neoformans IAM 4514; YMA pH 7.0, 28° C., 40 hours; read-out: MIC
measurement_kind: MIC (µg/mL)
Answers are plain numbers, in µg/mL.

Solved cases (2 shown):
{"columns": ["molecule", "unit_string", "MIC"],
 "data": [
  ["COc1cc(O)c2c(c1)C(=O)c1c(cc3c(c1O)-c1c(cc(C)c(C(=O)N[C@H](C)C(=O)O)c1O)[C@H](O[C@@H]1O[C@H](C)[C@H](NC=N)[C@H](O[C@@H]4OC[C@@H](O)[C@H](O)[C@H]4O)[C@H]1O)[C@H]3O)C2=O [KHM-9, 4'-Amidinopradimicin C]", "µg/mL", 3.1],
  ["COc1cc(O)c2c(c1)C(=O)c1c(cc3c(c1O)-c1c(cc(C)c(C(=O)N[C@H](C)C(=O)O)c1O)[C@H](O[C@@H]1O[C@H](C)[C@H](NC(=N)N)[C@H](O[C@@H]4OC[C@@H](O)[C@H](O)[C@H]4O)[C@H]1O)[C@H]3O)C2=O [KHM-8, 4'-Guanidinopradimicin C]", "µg/mL", 6.3]
]}

Batch request: MIC for each of the following molecules.
1. CN[C@@H]1[C@H](O[C@@H]2OC[C@@H](O)[C@H](O)[C@H]2O)[C@@H](O)[C@H](O[C@H]2c3cc(C)c(C(=O)N[C@H](C)C(=O)O)c(O)c3-c3c(cc4c(c3O)C(=O)c3cc(OC)cc(O)c3C4=O)[C@@H]2O)O[C@@H]1C [Pradimicin A, reference compound]
2. COc1cc(O)c2c(c1)C(=O)c1c(cc3c(c1O)-c1c(cc(C)c(C(=O)N[C@H](C)C(=O)O)c1O)[C@H](O[C@@H]1O[C@H](C)[C@H](N(C)C#N)[C@H](O[C@@H]4OC[C@@H](O)[C@H](O)[C@H]4O)[C@H]1O)[C@H]3O)C2=O [KHM-1, 4'-N-Cyanogradimicin A]
3. COc1cc(O)c2c(c1)C(=O)c1c(cc3c(c1O)-c1c(cc(C)c(C(=O)N[C@H](CO)C(=O)O)c1O)[C@H](O[C@@H]1O[C@H](C)[C@H](NC#N)[C@H](O[C@@H]4OC[C@@H](O)[C@H](O)[C@H]4O)[C@H]1O)[C@H]3O)C2=O [KHM-4, 4'-N-Cyanopradimicin FA2]

1. 1.6
2. 3.1
3. 3.1
